target: RSV F on RSV-A2 virus (Respiratory Syncytial Virus (RSV-A2), UniProt P03420 26-574); assay: cell-based or functional assay
Each entry below carries its reported Neutralization IC50 (RSV subtype A).
recorded-endpoint: Neutralization IC50 (RSV subtype A)

* ADI-41541 (antibody, V domains shown, also called Ab 813; Antibody Number 813) VH: QITLKESGPTLVKPTQTLTLTCTFSGFSLSSSGVGVGWIRQPPGKALEWLALIYWDDDKRYSPSLKSRLTITKDTSKNQVVLTMTNMDPVDTATYYCAHRGPYYYDMSGYYYEAFDIWGQGTTVTVSS VL: SYELMQPPSVSVAPGQTARITCGGNNIGSKGVHWYQQKPGQAPVLVVYDDNDRPSGIPERFSGSNSGNTATLTISRVEAGDEADYYCQVWDSSSDHHYVFGTGTKVTVL | > 25 µg/mL
* ADI-41531 (antibody, V domains shown, also called Ab 803; Antibody Number 803) VH: EVQLLESGGDLVQPGGSLRLSCAASGFTFFSYALNWVRRTPGKGLEWVSGISGSGGSTYYADSVKGRFTISRDNSKSTLYLQMNSLKVDDTAVYFCAKDFQHDYGDPYRSYYFDHWGQGTLVTVSS VL: DIQLTQSPSSLAASVGDRVTITCQASRDIRKSLNWYQVKPGKAPKLLISDASYLETGVPPRFSGSGFGTHFTFTISSLQPEDIATYYCQQYDNLPPPTFGGGTKVDIK | > 25 µg/mL
* ADI-41463 (antibody, V domains shown, also called Ab 747; Antibody Number 747) VH: QVQLVQSGAEVKKPGASVKVSCTASGYSFTDYDISWVRQAPGQGLEWMGWISAYNGNTNYAQKFQDRVTMNTDTSTNTAYMELRGLRSDDTAVYYCARNCYYGSGTCYIEDYYFDYWGQGTLVTVSS VL: DIQMTQSPSSLSASVGDRVTITCRASQDIKNDLGWYQQKPGKPPKRLIYGASRSQSGVPSRFSGSGSGTDFTLTIYSLQPEDFATYYCLQHSDYPFTFGQGTRLEIK | > 25 µg/mL
